B1: F1*; the commonest letter at each place (parent)
chain: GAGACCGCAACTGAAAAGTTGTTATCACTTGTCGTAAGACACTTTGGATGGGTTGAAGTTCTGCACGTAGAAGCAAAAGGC

variants of: B1; assay: fraction ligated after 30 min (ligated reads / total reads); higher = more ligase activity; conditions: with F1*sub RNA substrate (template-directed ligation), 42 °C
Please provide measured fraction ligated for the entries that follow.
Answers are plain numbers.

GAGACCGCAACTGAAAAGTTGTTATCACTTGTCGAAAGACACGTTGGATGGGTTGAAGTTCTGCACGTAGAAGCAAAAGGC [T35A T43G] : 0.807
GAGACCGCAACTGAAAAGTTGTTATCACTTGTCTTAAGACACCTTGGATGGGTTGAAGTTCTGCACGTAGAAGCAAAAGGC [G34T T43C] : 0.782
GAGACCGCAACTGAAAAGTTGTTATCACTTGTCGCAAGACACTTTGGAGGGGTTGAAGTTCTGCACGTAGAAGCAAAAGGC [T35C T49G] : 0.804

Hi! Can you tell me fraction ligated for each of these variants?
1. GAGACCGCAACTGAAAAGTTGTTATCACTTGTCGAAAGACACCTTGGATGGGTTGAAGTTCTGCACGTAGAAGCAAAAGGC [T35A T43C]
2. GAGACCGCAACTGAAAAGTTGTTATCACTTGTCGTACGAAACTTTGGATGGGTTGAAGTTCTGCACGTAGAAGCAAAAGGC [A37C C40A]
3. GAGACCGCAACTGAAAAGTTGTTATCACTTGTCGTCAGACACTTTGAATGGGTTGAAGTTCTGCACGTAGAAGCAAAAGGC [A36C G47A]
4. GAGACCGCAACTGAAAAGTTGTTATCACTTGACGTAAGACACTCTGGATGGGTTGAAGTTCTGCACGTAGAAGCAAAAGGC [T32A T44C]
5. GAGACCGCAACTGAAAAGTTGTTACAACTTGTCGTAAGACACTTTGGATGGGTTGAAGTTCTGCACGTAGAAGCAAAAGGC [T25C C26A]
6. GAGACCGCAACTGAAAAGTTGTTATCAGTTGTCGTAAGCCACTTTGGATGGGTTGAAGTTCTGCACGTAGAAGCAAAAGGC [C28G A39C]

[0.794, 0.82, 0.81, 0.82, 0.0548, 0.759]

Provide the reported fraction ligated of each entry below, same order.
1. GAGACCGCAACTGAAAAGTTGTTATCACTTGTGGTAAGACGCTTTGGATGGGTTGAAGTTCTGCACGTAGAAGCAAAAGGC [C33G A41G]
2. GAGACCGCAACTGAAAAGTTGTTATCACTTGTCGTAAGACACTTTGGACGGGTTGAAGTTCTGCACGTAGAAGCAAAAGGC [T49C]

[0.791, 0.731]
